system: MOLT-4; assay: NCI tumour cell line growth inhibition, 48 h
Calls of active or inactive are those of the source. Rule as the data show it: active = GI50 up to about 1.1 µM and inactive = higher.
Pick from active, inactive when you respond.

Please review the following examples before continuing.
O=C(O)c1nc(-c2ccccc2)[nH]c1C(=O)O : active
Cc1c(F)c(N)c2c(=O)cc(-c3ccc(N)c(F)c3)oc2c1F : inactive
COC(=O)c1cc(C(=O)OC)c(CC(=O)C(=O)NC2C3CC4CC(C3)CC2C4)nc1CC(=O)C(=O)NC1C2CC3CC(C2)CC1C3 (centres undefined) : inactive

q: Short answer needed: outcome of this test for "COC(=O)c1ccccc1/C=C1\Cc2cc3c(cc2C1=O)CCC3" ?
a: inactive

q: How was "COc1ccccc1-c1cc(=O)c2ccc(OC)c(OC)c2o1" classified in this test?
a: inactive

q: GET /call?item= CNC1=C(C)C(=O)C2=C(C1=O)C(COC(N)=O)C1(OC)C3NC3CN21 (centres undefined) returns the recorded outcome of this test.
a: inactive

q: How was "O=[N+]([O-])c1cc(/N=N/c2c(O)ccc3cc(S(=O)(=O)O)ccc23)c(O)c([N+](=O)[O-])c1" classified in this test?
a: inactive

q: For Cn1c(C(C#N)c2nc(Cl)ncc2Br)nc2ccccc21 (centres undefined) , what call appears in the results of this test?
a: inactive

q: Tell me the assay call for "COC(=O)C1=C(C)NC(C)=C(C(=O)OCCCN2CCC(c3ccccc3)(c3ccccc3)CC2)[C@H]1c1cccc([N+](=O)[O-])c1" please.
a: inactive

====

test system: COLO 205; test: NCI tumour cell line growth inhibition, 48 h
Active and inactive are the calls of the source. Rule as the data show it: active = GI50 up to about 1.1 µM and inactive = higher.
Just give me one of these, please: true (1) = active, false (0) = inactive

The following molecules have reported results that may help.
C=C1C[C@@H]2C[C@@H](C)CC(O)[C@]2(CCCN)C1O (some centres not stated) : false (0)
CC1OC(OCC2OC(Oc3ccc(C4CC(=O)c5c(O)cc(O)cc5O4)cc3O)C(O)C(O)C2O)C(O)C(O)C1O (configuration not stated) : false (0)

q: Call for entry "C/C(=C\c1csc(C)n1)[C@@H]1C[C@@H]2O[C@@H]2CCC[C@H](C)[C@H](O)[C@@H](C)C(=O)C(C)(C)[C@@H](O)CC(=O)O1.C/C(=C\c1csc(C)n1)[C@@H]1C[C@@H]2O[C@]2(C)CCC[C@H](C)[C@H](O)[C@@H](C)C(=O)C(C)(C)[C@@H](O)CC(=O)O1" :
a: true (1)

q: Called result for O=CN1CCN(CC(O)CN2CCCCC2)CC1 (configuration not stated)
a: false (0)

q: Any idea what this test logged for "Cc1ccc(NC(=O)COc2ccc(Cl)cc2)cc1Cl" ?
a: false (0)

q: For "Cc1n[nH]/c(=N\S(=O)(=O)c2ccc(/N=N/c3c(O)c(C(=O)O)cc4ccccc34)cc2)s1" , which call appears in the assay record?
a: false (0)

q: Assay outcome for CC1=C(C(=O)OCCc2ccc([N+](=O)[O-])cc2)C(c2cccc([N+](=O)[O-])c2)C(C(=O)OC(C)C)=C(C)N1 (configuration not stated) : what was it?
a: false (0)

====

Give GI50 for every item shown.
tested on: KM-20L2; assay: NCI tumour cell line growth inhibition, 48 h
Active and inactive are the calls of the source. Cut-off read from the data, not from the text of the source: active = GI50 up to about 1.1 µM and inactive = higher.

# count of solved cases: 6
CN1CCCc2nc3ccccc3n2C1 : > 100 µM (inactive)
N#C/C(=C\c1ccccc1Br)C(=O)c1ccccc1 : > 87.3 µM (inactive)
C=C1C[C@@H]2C[C@@H](C)CC(O)[C@]2(CCCN)C1O (some centres undefined) : > 100 µM (inactive)
CCN(CC)c1ccc(/N=N/c2ccc(-c3nc4cccn(C)c-4n3)cc2)cc1 : 5.32 µM (inactive)
O=C1c2ccccc2N2OC3(N4CCOCC4)CCCC3C12c1ccccc1 (centres undefined) : > 100 µM (inactive)
CC(=O)O[C@H]1CC[C@@]2(C)C(=CC[C@@H]3C2CC[C@]2(C)Nc4[nH]ncc4CC32)C1 (some centres undefined) : 27.9 µM (inactive)

# batch: return GI50 for each of the 4 compounds below
1. Cn1cc(NC(=O)c2cc(NC(=O)CCCCCCCCCCC(=O)Nc3cc(C(=O)Nc4cc(C(=O)NCCC(=N)N)n(C)c4)n(C)c3)cn2C)cc1C(=O)NCCC(=N)N
2. Cc1cccc(C)c1NC(=O)C(=O)C(C#N)c1ccccc1 (centres undefined)
3. Cc1cccc(NC(=O)c2cc3cc(/N=N/c4ccccc4Cl)ccc3oc2=O)c1
4. Nc1nc2c(ncn2Cc2ccccc2CCO)c(=O)[nH]1

a:
["27 µM (inactive)", "> 100 µM (inactive)", "> 100 µM (inactive)", "> 100 µM (inactive)"]

Give one value of GI50 per listed compound.
1. O=C1O/C(=C(\Br)c2cccc3ccccc23)c2ccccc21
2. Cc1cc2c(C)n(Cc3ccc(Cl)cc3Cl)nc2c(C#N)c1C
3. COC1(OC)CC2CCCCC2=C(C)N1S(=O)(=O)c1ccccc1 (centres undefined)
4. O=C(Nc1ccc(Br)cc1)C(=O)C(C(=O)c1ccc(Cl)c(Cl)c1)C1OC(=O)c2ccccc21 (centres undefined)

a:
1. 25.1 µM (inactive)
2. 36.5 µM (inactive)
3. > 100 µM (inactive)
4. 33 µM (inactive)

====

What GI50 was measured for each of the following?
system: LOX IMVI; experiment: NCI tumour cell line growth inhibition, 48 h
Active and inactive are the calls of the source. Rule as the data show it: active = GI50 up to about 1.1 µM and inactive = higher.

Use these answered entries as a reference point.
CC(C)(C)OC(=O)c1ccc(NCC2=CC(=O)C=CC2=O)cc1 : 10.7 µM (inactive)
CC1(C#N)CC(C)(C)C(/C=C2/CC(C)(C)C(/C=C3/OC(=N)CC3(C)C)=N2)=N1 (centres undefined) : 36.2 µM (inactive)
O=C(O)CCC[C@]1(O)O[C@@]2(CCCC2=O)[C@]2(O)CCC[C@@]21O : > 100 µM (inactive)
Clc1ccc(/C=C/c2nc(Cl)c(-c3ccc(Cl)cc3)c(Cl)n2)cc1 : 86.9 µM (inactive)
CCO/C=C/C(C)C1(C(=O)OCC)CCCCC1=O (centres undefined) : 45.9 µM (inactive)

Each compound below has a reported value. Please supply its GI50.
1. COc1cc2c(cc1OC)-c1cc3ccccc3c[n+]1CC2
2. Cc1cc(-c2nc3ccc(F)cc3s2)ccc1NC(=O)C(N)CCCCN (centres undefined)
3. COC(=O)c1ccccc1/C=C1\Cc2cc3c(cc2C1=O)CCC3
4. N#Cc1cc([N+](=O)[O-])ccc1NC(=O)C(F)(F)F

a:
1: > 100 µM (inactive); 2: 2.3 µM (inactive); 3: > 100 µM (inactive); 4: > 34.7 µM (inactive)

====

test system: NCI/ADR-RES; test: NCI tumour cell line growth inhibition, 48 h
Active and inactive are the calls of the source. Rule as the data show it: active = GI50 up to about 1.1 µM and inactive = higher.
For each record, write down the corresponding GI50.

Cc1ccnc(NC(NC(=O)c2ccccc2)(C(F)(F)F)C(F)(F)F)c1 : > 100 µM (inactive)

Give one value of GI50 per listed compound.
1. O=C1/C(=C/c2ccco2)N=C(c2ccccc2)N1c1ccc(S(=O)(=O)Nc2nccs2)cc1
2. CCCCCCc1cc(C=O)sc1-c1ccc(-c2sc(-c3ccc(-c4ccc(-c5cc(CCCCCC)c(-c6ccc(-c7sc(C=O)cc7CCCCCC)s6)s5)s4)s3)cc2CCCCCC)s1
3. Cc1ccc2c(=O)cc(-c3ccc(-c4ccccc4)s3)[nH]c2n1
4. CCCCSC1=N/C(=C\c2ccco2)C(=O)N1
5. CC(C)(C)OC(=O)n1c(Cl)c(C=O)c2ccccc21

a:
> 100 µM (inactive)
> 100 µM (inactive)
> 57.1 µM (inactive)
31.9 µM (inactive)
30.7 µM (inactive)

Kindly give each listed record's GI50.
1. COC1=CC(=O)N(C)C(O)C1(C#N)OC1OC(CO)C(O)C(O)C1O (centres undefined)
2. CC(C)(C)OC(=O)C1C(=O)NC(=O)CC1CC(OCc1ccccc1)C(COCc1ccccc1)OCc1ccccc1 (centres undefined)
3. CCCCCCCC1c2cc3nc(cc4[nH]c(cc5nc(cc([nH]2)[C@@]1(C)CC(=O)N(C)C)C(C)=C5CCC(=O)O)c(CCC(=O)O)c4C)C=C3C (some centres undefined)

a:
1: > 100 µM (inactive); 2: 10 µM (inactive); 3: 20.4 µM (inactive)

====

test system: OVCAR-3; test: NCI tumour cell line growth inhibition, 48 h
The source made the active and inactive calls. Rule as the data show it: active = GI50 up to about 1.1 µM and inactive = higher.
observation type: GI50

Oc1nc2cc(Cl)ccc2nc1/C(=N\Nc1ccccc1)C(O)c1ccc(Cl)c(Cl)c1 (stereo not given) : > 100 µM (inactive)
CCc1n[nH]c(=O)n1-c1ccc2ccccc2c1 : > 100 µM (inactive)
CC1=CC(C)C(C)N(CCNC(=O)Nc2ccccc2)c2ccccc21 (stereo not given) : 16 µM (inactive)
COc1ccc(-c2cc(=O)c3ccccc3[nH]2)c(OC)c1 : > 100 µM (inactive)

q: // query GI50 value for entry CCOC1(OCC)C2C=CC1C(COS(=O)(=O)c1ccc(C)cc1)C2COS(=O)(=O)c1ccc(C)cc1 (stereo not given)
a: 22.5 µM (inactive)
